Test system: H4
Assay: Selectivity index, Ratio of CC50 for human H4 cells to CC50 for human Caco-2 cells
Assay type: functional
We begin with a simple list: items and their reported Selectivity index.
Answer as a number with no unit attached.

Below, each entry is followed by its recorded Selectivity index result.
Query: Give Selectivity index (H4) of the following compound: `CC(=O)O[C@@H]1[C@@H](F)[C@@H](CSC(C)=O)O[C@H]1n1cc(C)c(=O)[nH]c1=O`
Response: 2.5

Query: Cool, now `CC(=O)O[C@@H]1[C@@H](F)[C@@H](CSC(C)=O)O[C@H]1n1cc(F)c(=O)[nH]c1=O`
Response: 25

Query: Cool, now `CC(=O)O[C@@H]1[C@@H](F)[C@@H](CSC(C)=O)O[C@H]1n1ccc(=O)[nH]c1=O`
Response: 25

Then there is this compound:
Query: Give Selectivity index (H4) of the following compound: O=c1[nH]cc(F)c(=O)[nH]1 [FLUOROURACIL]
Response: 10
